Reference source for all entries: patent US20260167728A1

target: T1, huCD3e-mFc (human, UniProt P07766 23-126); experiment: Pool 3 screen, R3
T1 construct: not shown: mFc, not described
T1 sequence (P07766 23-126): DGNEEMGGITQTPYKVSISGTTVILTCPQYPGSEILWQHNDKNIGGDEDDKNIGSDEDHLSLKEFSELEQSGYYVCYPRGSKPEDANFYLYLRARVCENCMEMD
RECORDED ENDPOINT: pKd
Just so you know, pKd here is -log10 of the concentration in molar units; reply with that number alone.

INPUT: Entry AC3805 (CD3.301) (scFv, V domains shown, Pool 3 format (remarks)) VH: EVQLVESGGGIVQPGGSLRLSCAASGFTFSTYAMNWVRQAPGKGLEWVGRIRTKRNDYATYYADSVKGRFTISRDDSKNTAYLQMNSLKTEDTAVYYCVRHENFGNSYVSWFAHWGQGTLVTVSS VL: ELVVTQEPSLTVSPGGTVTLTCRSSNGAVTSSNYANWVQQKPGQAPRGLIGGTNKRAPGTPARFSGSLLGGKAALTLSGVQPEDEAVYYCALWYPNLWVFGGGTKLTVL : reported pKd = ?
OUTPUT: 8.36

INPUT: Entry AC3809 (CD3.305) (scFv, V domains shown, Pool 3 format (remarks)) VH: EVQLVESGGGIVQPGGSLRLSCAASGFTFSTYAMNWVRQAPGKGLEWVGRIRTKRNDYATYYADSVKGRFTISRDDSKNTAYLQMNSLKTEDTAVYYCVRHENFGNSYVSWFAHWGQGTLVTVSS VL: ELVVTQEPSLTVSPGGTVTLTCRSSNGAVTSSNYANWVQQKPGQAPRGLIGGTNKRAPGTPARFSGSLEGGKAALTLSGVQPEDEAVYYCALWYPNLWVFGGGTKLTVL : reported pKd = ?
OUTPUT: 8.34

INPUT: Could you share which pKd value was measured for AC3881 (CD3.377) (scFv, V domains shown, Pool 3 format (remarks)) VH: EVQLVESGGGIVQPGGSLRLSCAASGFTFSTYAMNWVRQAPGKGLEWVGRIRTKRNNYATTYADSVKGRFTISRDDSKNTVYLQMNSLKTEDTAVYYCVRHENFGNSYVSWFAHWGQGTLVTVSS VL: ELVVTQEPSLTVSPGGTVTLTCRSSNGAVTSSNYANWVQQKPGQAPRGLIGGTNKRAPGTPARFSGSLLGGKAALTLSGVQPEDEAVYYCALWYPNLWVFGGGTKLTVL ?
OUTPUT: 7.98

INPUT: Reported pKd, binder AC3860 (CD3.356) (scFv, V domains shown, Pool 3 format (remarks)) VH: EVQLVESGGGIVQPGGSLRLSCAASGFTFSTYAMNWVRQAPGKGLEWVGRIRTKTNDYATYYADSVKGRFTISRDDSKNTAYLQMNSLKTEDTAVYYCVRHENFGNSYVSWFAHWGQGTLVTVSS VL: ELVVTQEPSLTVSPGGTVTLTCRSSNGAVTSSNYANWVQQKPGQAPRGLIGGTNKRAPGTPARFSGSALGGKAALTLSGVQPEDEAVYYCALWYPNLWVFGGGTKLTVL : ____
OUTPUT: 7.71

INPUT: // returns reported pKd for input AC3811 (CD3.307) (scFv, V domains shown, Pool 3 format (remarks)) VH: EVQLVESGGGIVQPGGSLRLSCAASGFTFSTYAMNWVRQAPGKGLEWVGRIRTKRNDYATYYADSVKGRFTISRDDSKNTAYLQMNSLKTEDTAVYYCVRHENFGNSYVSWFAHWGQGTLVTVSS VL: ELVVTQEPSLTVSPGGTVTLTCRSSNGAVTSSNYANWVQQKPGQAPRGLIGGTNKRAPGTPARFSGSLDGGKAALTLSGVQPEDEAVYYCALWYPNLWVFGGGTKLTVL
OUTPUT: 8.32

INPUT: Which value of pKd has been reported for AC3768 (CD3.23 control) (scFv, V domains shown, Pool 3 format (remarks)) VH: EVQLLESGGGIVQPGGSLKLSCAASGFTFNTYAMNWVRQAPGKGLEWVARIRSKYNNYATYYADSVKDRFTISRDDSKNTVYLQMNNLKTEDTAVYYCVRHENFGNSYVSWFAHWGQGTLVTVSS VL: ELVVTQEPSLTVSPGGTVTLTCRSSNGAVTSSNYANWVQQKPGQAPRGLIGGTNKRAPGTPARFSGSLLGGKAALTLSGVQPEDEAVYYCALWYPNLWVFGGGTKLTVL in the records?
OUTPUT: 8.25
